Molecular target: Kras and SOS1 (biotin-tagged human Kras loaded with GDP, His-tagged human SOS1) (Homo sapiens, UniProt P01116, G12D)
Construct: made in house; host or cells: E. coli (stated for Kras only)
Sequence (P01116 1-188 isoform P01116-2 G12D): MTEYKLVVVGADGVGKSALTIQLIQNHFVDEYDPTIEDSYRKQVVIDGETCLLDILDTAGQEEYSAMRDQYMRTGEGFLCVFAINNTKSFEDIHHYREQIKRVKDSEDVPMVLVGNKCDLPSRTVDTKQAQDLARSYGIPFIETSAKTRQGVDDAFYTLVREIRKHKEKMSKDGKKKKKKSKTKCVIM
Assay: Protein-protein interaction inhibition between Kras and SOS1 (KrasGl2D-SOS PPI) using AlphaScreen
Type: binding
Conditions: AlphaScreen; biotin-tagged human Kras loaded with GDP, His-tagged human SOS1; read-out: KRAS G12D-SOS PPI IC50
Starred links: 1 amine or outer side, 2 acyl side, 3 side chain; linkers in the order of their positions; H or OH if unused. Positions of bridges follow the written chain, without caps; N, C: chain ends. Non-standard residues stand in square brackets, D forms with d. Residues, ends and D or L forms follow the SMILES beside them. *: point of attachment. hPhe(3-Cl-4-CF3) = N[C@@H](CCc1ccc(C(F)(F)F)c(Cl)c1)C(=O)O; NMePhe(3-F) = CN[C@@H](Cc1cccc(F)c1)C(=O)O; NMedβ3hAla = C[C@H](CC(=O)[*:2])N(C)[*:1]; NMeAla(cPent) = CN[C@@H](CC1CCCC1)C(=O)O; NMeCha = CN[C@@H](CC1CCCCC1)C(=O)O; NMeCba = CN[C@@H](CC1CCC1)C(=O)O; NMeChg = CN[C@H](C(=O)O)C1CCCCC1; N(CH2CH2)2CF2 = FC1(F)CCN(*)CC1; NMeD = CN[C@@H](CC(=O)O)C(=O)O; NMeL = CN[C@@H](CC(C)C)C(=O)O; NMeNva = CCC[C@H](NC)C(=O)O; NMeV = CN[C@H](C(=O)O)C(C)C; Morpholide = C1CN(*)CCO1; NMeA = CN[C@@H](C)C(=O)O; NMeAib = CNC(C)(C)C(=O)O; Nle = CCCC[C@H](N)C(=O)O; Piperidide = C1CCN(*)CC1; Ac5c = NC1(C(=O)O)CCCC1; Aze = O=C(O)[C@@H]1CCN1; Aib = CC(C)(N)C(=O)O; Sar = CNCC(=O)O
Recorded Metric: IC50 (nM)

INSERT INTO results (compound, recorded_metric, quantitative_result) VALUES
  ('CC[C@H](C)[C@@H]1NC(=O)[C@H](CC(C)C)N(C)C(=O)C[C@@H](C(=O)N2CCCCC2)N(C)C(=O)[C@H](C(C)C)N(C)C(=O)C(C)(C)NC(=O)[C@H](CC(=O)N2CCC(F)(F)CC2)N(C)C(=O)[C@H](CCc2ccc(C(F)(F)F)c(Cl)c2)NC(=O)CN(C)C(=O)[C@H](CC2CCCCC2)N(C)C(=O)CN(C)C(=O)CN(C)C1=O [Compound 463] ([NMeL]I[Sar][Sar][NMeCha][Sar][hPhe(3-Cl-4-CF3)][NMeD](N(CH2CH2)2CF2)[Aib][NMeV][NMeD]-Piperidide; lactam N-11)', 'IC50', 4.4),
  ('CC[C@H](C)[C@@H]1NC(=O)[C@H](C)N(C)C(=O)C[C@@H](C(=O)N2CCCCC2)N(C)C(=O)[C@H](C(C)C)N(C)C(=O)C2(CCCC2)NC(=O)[C@H](Cc2cccc(F)c2)N(C)C(=O)[C@H](CCc2ccc(C(F)(F)F)c(Cl)c2)NC(=O)CN(C)C(=O)[C@H](CC2CCCCC2)N(C)C(=O)CN(C)C(=O)CN(C)C1=O [Compound 945] ([NMeA]I[Sar][Sar][NMeCha][Sar][hPhe(3-Cl-4-CF3)][NMePhe(3-F)][Ac5c][NMeV][NMeD]-Piperidide; lactam N-11)', 'IC50', 9.8),
  ('CCCC[C@@H]1NC(=O)[C@H](CCc2ccc(C(F)(F)F)c(Cl)c2)NC(=O)CN(C)C(=O)[C@H](CC2CCCC2)N(C)C(=O)[C@@H]2CCN2C(=O)[C@H](C)N(C)C(=O)[C@H]([C@@H](C)CC)NC(=O)[C@H](CC(C)C)N(C)C(=O)C[C@@H](C(=O)N2CCCCC2)N(C)C(=O)[C@H](CC(C)C)NC(=O)C(C)(C)N(C)C1=O [Compound 691] ([NMeL]I[NMeA][Aze][NMeAla(cPent)][Sar][hPhe(3-Cl-4-CF3)][Nle][NMeAib]L[NMeD]-Piperidide; lactam N-11)', 'IC50', 7.1),
  ('CCC[C@H]1C(=O)N[C@@H]([C@@H](C)CC)C(=O)N(C)CC(=O)N(C)CC(=O)N(C)[C@@H](CC2CCCC2)C(=O)N(C)CC(=O)N[C@@H](CCc2ccc(C(F)(F)F)c(Cl)c2)C(=O)N2CCC[C@H]2C(=O)NC2(CCCC2)C(=O)N(C)[C@@H](C2CCCCC2)C(=O)N(C)[C@H](C(=O)N2CCOCC2)CC(=O)N1C [Compound 1998] ([NMeNva]I[Sar][Sar][NMeAla(cPent)][Sar][hPhe(3-Cl-4-CF3)]P[Ac5c][NMeChg][NMeD]-Morpholide; lactam N-11)', 'IC50', 0.75),
  ('CC[C@H](C)[C@@H]1NC(=O)[C@H](CC(C)C)N(C)C(=O)C[C@@H](C)N(C)C(=O)[C@H](CC2CCC2)N(C)C(=O)C2(CCCC2)NC(=O)[C@@H]2CCCN2C(=O)[C@H](CCc2ccc(C(F)(F)F)c(Cl)c2)NC(=O)CN(C)C(=O)[C@H](CC2CCCCC2)N(C)C(=O)CN(C)C(=O)CN(C)C1=O [Compound 723] (cyclo([Ac5c][NMeCba][NMedβ3hAla][NMeL]I[Sar][Sar][NMeCha][Sar][hPhe(3-Cl-4-CF3)]P))', 'IC50', 17);
